target or system: MEK5 (Homo sapiens)
Sequence (Q13163 whole entry): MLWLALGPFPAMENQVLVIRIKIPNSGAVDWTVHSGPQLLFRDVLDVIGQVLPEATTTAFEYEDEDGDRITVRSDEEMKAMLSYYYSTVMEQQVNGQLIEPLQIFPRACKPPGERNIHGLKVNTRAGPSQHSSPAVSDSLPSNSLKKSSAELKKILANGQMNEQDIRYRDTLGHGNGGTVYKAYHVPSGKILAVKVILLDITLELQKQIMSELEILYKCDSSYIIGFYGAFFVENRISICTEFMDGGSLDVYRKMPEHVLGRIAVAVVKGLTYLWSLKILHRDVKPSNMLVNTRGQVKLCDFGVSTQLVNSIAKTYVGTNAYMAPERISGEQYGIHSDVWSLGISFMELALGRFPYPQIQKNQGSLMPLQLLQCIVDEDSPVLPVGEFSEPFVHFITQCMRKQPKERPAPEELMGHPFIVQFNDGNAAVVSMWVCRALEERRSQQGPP
pIC50: −log10 of the molar value.
readout kind: pIC50

Per the record, COc1cc2c(Oc3ccc(NC(=O)C4(C(=O)Nc5ccc(F)cc5)CC4)cc3)ccnc2cc1OC(=O)N1CCN(C)CC1 [Compound 1-10] has pIC50 of < 6.00

---

target or system: PDGFβ (Homo sapiens, UniProt P09619)
Sequence (P09619 33-1106): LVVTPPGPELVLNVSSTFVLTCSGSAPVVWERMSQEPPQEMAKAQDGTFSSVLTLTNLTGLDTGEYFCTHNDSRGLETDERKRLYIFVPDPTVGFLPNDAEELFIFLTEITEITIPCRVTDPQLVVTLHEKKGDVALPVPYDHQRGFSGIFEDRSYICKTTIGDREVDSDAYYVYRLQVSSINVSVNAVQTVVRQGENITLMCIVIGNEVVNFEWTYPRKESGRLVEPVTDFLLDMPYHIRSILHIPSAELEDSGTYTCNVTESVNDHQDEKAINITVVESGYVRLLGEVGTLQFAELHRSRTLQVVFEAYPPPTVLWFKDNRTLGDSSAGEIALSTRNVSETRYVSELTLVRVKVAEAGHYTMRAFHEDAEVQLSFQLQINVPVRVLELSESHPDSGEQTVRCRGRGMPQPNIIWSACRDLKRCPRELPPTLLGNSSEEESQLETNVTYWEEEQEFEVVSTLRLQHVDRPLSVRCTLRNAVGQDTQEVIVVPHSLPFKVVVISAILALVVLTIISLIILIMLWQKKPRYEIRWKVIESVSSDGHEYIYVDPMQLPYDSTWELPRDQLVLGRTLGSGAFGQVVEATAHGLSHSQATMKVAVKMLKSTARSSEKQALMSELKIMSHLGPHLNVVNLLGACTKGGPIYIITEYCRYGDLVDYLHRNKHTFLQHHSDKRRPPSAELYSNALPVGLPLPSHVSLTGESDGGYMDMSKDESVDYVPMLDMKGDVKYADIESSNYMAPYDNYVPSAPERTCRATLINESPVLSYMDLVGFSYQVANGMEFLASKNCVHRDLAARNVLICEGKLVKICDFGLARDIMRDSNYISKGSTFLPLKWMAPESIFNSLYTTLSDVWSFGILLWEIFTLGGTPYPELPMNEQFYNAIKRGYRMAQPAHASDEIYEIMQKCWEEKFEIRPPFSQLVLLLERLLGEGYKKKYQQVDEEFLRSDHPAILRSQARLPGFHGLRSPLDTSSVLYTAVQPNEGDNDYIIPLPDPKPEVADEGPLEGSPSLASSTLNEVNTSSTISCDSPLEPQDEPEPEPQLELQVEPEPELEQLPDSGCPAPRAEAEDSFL
readout kind: IC50

Per the record, COc1cc2c(Oc3ccc(NC(=O)C4(C(=O)Nc5ccc(F)cc5)CC4)cc3)ccnc2cc1OC(=O)N1CCN(C)CC1 has IC50 of 0.1 to 1 µM

---

target or system: KDR/VEGFR2 (Homo sapiens, UniProt P35968)
Sequence (P35968 20-1356): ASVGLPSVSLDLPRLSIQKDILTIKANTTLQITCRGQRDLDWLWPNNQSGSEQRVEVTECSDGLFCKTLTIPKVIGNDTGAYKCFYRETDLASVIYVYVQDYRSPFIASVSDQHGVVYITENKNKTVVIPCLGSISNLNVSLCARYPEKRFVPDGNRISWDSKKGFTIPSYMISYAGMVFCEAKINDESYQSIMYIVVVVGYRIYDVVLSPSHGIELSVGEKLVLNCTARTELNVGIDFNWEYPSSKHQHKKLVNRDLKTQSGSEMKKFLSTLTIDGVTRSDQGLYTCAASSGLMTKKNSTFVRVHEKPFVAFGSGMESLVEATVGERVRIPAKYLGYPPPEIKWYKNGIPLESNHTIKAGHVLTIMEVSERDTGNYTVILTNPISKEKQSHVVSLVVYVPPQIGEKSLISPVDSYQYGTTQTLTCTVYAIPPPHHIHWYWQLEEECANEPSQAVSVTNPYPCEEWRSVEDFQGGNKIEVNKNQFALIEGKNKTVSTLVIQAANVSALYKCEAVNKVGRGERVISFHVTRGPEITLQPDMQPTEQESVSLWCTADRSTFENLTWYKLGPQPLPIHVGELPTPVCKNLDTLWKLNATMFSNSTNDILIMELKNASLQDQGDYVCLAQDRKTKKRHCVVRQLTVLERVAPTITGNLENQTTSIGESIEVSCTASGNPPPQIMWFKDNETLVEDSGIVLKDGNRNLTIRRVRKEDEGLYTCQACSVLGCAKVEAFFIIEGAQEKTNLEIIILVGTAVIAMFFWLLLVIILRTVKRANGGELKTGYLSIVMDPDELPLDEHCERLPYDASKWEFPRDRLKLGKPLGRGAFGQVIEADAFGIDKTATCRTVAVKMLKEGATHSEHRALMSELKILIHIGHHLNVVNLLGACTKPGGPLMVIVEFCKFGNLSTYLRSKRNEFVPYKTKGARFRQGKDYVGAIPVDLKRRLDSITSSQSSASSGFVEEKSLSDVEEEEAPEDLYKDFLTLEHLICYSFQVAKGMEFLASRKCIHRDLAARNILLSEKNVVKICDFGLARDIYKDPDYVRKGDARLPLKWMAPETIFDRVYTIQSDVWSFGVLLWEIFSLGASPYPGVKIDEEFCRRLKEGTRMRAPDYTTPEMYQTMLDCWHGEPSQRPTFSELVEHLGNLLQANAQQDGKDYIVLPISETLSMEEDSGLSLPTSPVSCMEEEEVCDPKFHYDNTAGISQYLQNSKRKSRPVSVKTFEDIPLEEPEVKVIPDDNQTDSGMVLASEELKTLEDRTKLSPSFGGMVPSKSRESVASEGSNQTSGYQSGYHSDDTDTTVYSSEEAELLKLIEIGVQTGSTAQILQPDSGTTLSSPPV
run description: HotSpot Kinase Assay, KDR/VEGFR2
readout kind: IC50

The cases that follow already have their IC50 on record.
In [3]: df
Out[3]:
                         chemical_structure          result
0  COc1cc2nccc(Oc3ccc(NC(=O)C4(C(=O)Nc5ccc(F)cc5)CC4)cc3)c2cc1OC(=O)N1[C@H](C)CN(C)C[C@@H]1C        < 100 nM
1  COc1cc2c(Oc3ccc(NC(=O)C4(C(=O)Nc5ccc(F)cc5)CC4)cc3)ccnc2cc1OC(=O)N1CCN(C)[C@H](C)C1  100 to 1000 nM
2  COc1cc2c(Oc3ccc(NC(=O)C4(C(=O)Nc5ccc(F)cc5)CC4)cc3)ccnc2cc1OC(=O)N1[C@H](C)CNC[C@@H]1C  100 to 1000 nM
3  COc1cc2c(Oc3ccc(NC(=O)C4(C(=O)Nc5ccc(F)cc5)CC4)cc3)ccnc2cc1OC(=O)N1CCN(C)CC1  100 to 1000 nM

// switching to the query compound
Per the record, COc1cc2c(Oc3ccc(NC(=O)C4(C(=O)Nc5ccc(F)cc5)CC4)cc3)ncnc2cc1OC(=O)N1CCNC[C@H]1C has IC50 of > 1000 nM
